Values from the supplement of paper PMC5579334

tested on: ST8814; test: % inhibition of CellTiter-Glo viability at highest tested concentration (72 h), relative to DMSO and benzethonium chloride controls; higher = more inhibition
Measured Parameter: % inhibition (%)
# number only, unit % dropped from output

# example entries with known answers
Compound	% inhibition, %
O=C1CN2Cc3c(ccc(Cl)c3Cl)N=C2N1 [Anagrelide] (max concentration tested 10000 nM)	17.3
N[C@@H](CSC(c1ccccc1)(c1ccccc1)c1ccccc1)C(=O)O [S-trityl-L-cysteine] (max concentration tested 40000 nM)	7.25
CCN1CCN(c2ccc(Nc3cc(N(C)C(=O)Nc4c(Cl)c(OC)cc(OC)c4Cl)ncn3)cc2)CC1 [NVP-BGJ398] (max concentration tested 1000 nM)	14.3

Tell me % inhibition reported for C[C@H]1C=C2C(=O)O[C@H]3CC[C@@H](C1)[C@@]23O [Galiellalactone] (max concentration tested 50000 nM)
88.9

Tell me % inhibition reported for Cn1cnc(-c2cc3nccc(Oc4ccc(NC(=S)NC(=O)Cc5ccccc5)cc4F)c3s2)c1 [MGCD-265] (max concentration tested 10000 nM)
29.8

Tell me % inhibition reported for COc1cc2c(Oc3ccc4[nH]c(C)cc4c3F)ncnc2cc1OCCCN1CCCC1 [Cediranib] (max concentration tested 1000 nM)
8.47

====

// values below are reported drug sensitivity score
test system: HSC2 (primary human Schwann cells); test: drug sensitivity score (DSS, CellTiter-Glo viability, 72 h) (DSS (dimensionless)); higher = more sensitive; extreme values may be limits of the assay

Compound	Subject Of Test	Measured Parameter	Value Observed
CC1=C(/C=C/C(C)=C/C=C/C(C)=C/C(=O)O)C(C)(C)CCC1 [Tretinoin] (max concentration tested 10000 nM)	HSC2 (primary human Schwann cells)	drug sensitivity score	1.99

The record that follows has no drug sensitivity score shown yet.
Tell me drug sensitivity score reported for Oc1ncc(N(CCCl)CCCl)c(O)n1 [Uracil mustard] (max concentration tested 10000 nM)
0

====

test system: HS-PSS; assay: relative IC50 (inflection point of fitted dose-response curve, CellTiter-Glo viability, 72 h; top asymptote may be below 50% inhibition); higher = less potent
// values below are reported relative IC50
# number only, unit µM dropped from output

# example entries with known answers
Compound	Value Observed
NS(=O)(=O)OC[C@@H]1C[C@@H](n2ccc3c(N[C@H]4CCc5ccccc54)ncnc32)C[C@@H]1O [Pevonedistat]	0.0896
NCC(=O)Nc1ccc(-n2nc(C(F)(F)F)cc2-c2ccc3c(ccc4ccccc43)c2)cc1	9.14
CCOc1cc2ncc(C#N)c(Nc3ccc(F)c(Cl)c3)c2cc1NC(=O)/C=C/CN(C)C [Pelitinib]	0.0795
O=C(Nc1cccc(Nc2ncc(Br)c(NCCc3cnc[nH]3)n2)c1)N1CCCC1 [BX-912]	1.93
CN(CC(=O)N(Cc1ccc(C2CCCCC2)cc1)c1ccc(C(=O)O)cc1)S(=O)(=O)c1c(F)c(F)c(F)c(F)c1F [SH-4-54]	7.51
CN(C)C/C=C/C(=O)Nc1cc2c(Nc3ccc(F)c(Cl)c3)ncnc2cc1O[C@H]1CCOC1 [Afatinib]	0.148
CNC(=O)c1cc(Oc2ccc(NC(=O)Nc3ccc(Cl)c(C(F)(F)F)c3)c(F)c2)ccn1 [Regorafenib]	3.58
CCN(CC)Cc1ccc2cc(COC(=O)Nc3ccc(C(=O)NO)cc3)ccc2c1 [Givinostat]	0.351

The record that follows has no relative IC50 shown yet.
Tell me relative IC50 reported for O=[N+]([O-])c1ccc2c(c1)S(=O)(=O)C=C2 [Stattic]
1.39

====

tested on: STS26T; assay: drug sensitivity score (DSS, CellTox-Green cytotoxicity, 72 h) (DSS (dimensionless)); higher = more cytotoxic; extreme values may be limits of the assay
Measured Parameter: drug sensitivity score
Returns: the value as a bare number; no unit string appended.

# example entries with known answers
Compound	Value Observed
CN(C)C[C@@H]1CCn2cc(c3ccccc32)C2=C(C(=O)NC2=O)c2cn(c3ccccc23)CCO1 [Ruboxistaurin] (max concentration tested 10000 nM)	6.98
CN[C@@H]1C[C@H]2O[C@@](C)([C@@H]1OC)n1c3ccccc3c3c4c(c5c6ccccc6n2c5c31)C(=O)N[C@H]4O [UCN-01] (max concentration tested 10000 nM)	29.4
Cc1c(C(=O)Nc2ccc(N3C[C@@H](C)O[C@@H](C)C3)nc2)cccc1-c1ccc(OC(F)(F)F)cc1 [Erismodegib] (max concentration tested 10000 nM)	0
Cc1nc(C(=O)NCC(=O)O)c(O)c2ccc(Oc3ccccc3)cc12 [FG-4592] (max concentration tested 10000 nM)	0
c1cc(CN2CCCNCCNCCCNCC2)ccc1CN1CCCNCCNCCCNCC1 [Plerixafor aq] (max concentration tested 10000 nM)	0.908
CC(=O)[C@]1(O)Cc2c(O)c3c(c(O)c2[C@@H](O[C@H]2C[C@H](N)[C@H](O)[C@H](C)O2)C1)C(=O)c1ccccc1C3=O [Idarubicin] (max concentration tested 1000 nM)	15.8
CC(C)N(CCCNC(=O)Nc1ccc(C(C)(C)C)cc1)C[C@H]1O[C@@H](n2cc(Br)c3c(N)ncnc32)[C@H](O)[C@@H]1O [SGC0946] (max concentration tested 10000 nM)	0
Cc1cnc(Nc2ccc(F)cc2Cl)nc1-c1c[nH]c(C(=O)N[C@H](CO)c2cccc(Cl)c2)c1 [VX-11E] (max concentration tested 2500 nM)	2.55
Cc1ccc(-c2cc(C(F)(F)F)nn2-c2ccc(S(N)(=O)=O)cc2)cc1 [Celecoxib] (max concentration tested 10000 nM)	0
CC(C)Cn1cnc2c(N)nc3ccccc3c21 [Imiquimod] (max concentration tested 2500 nM)	0

Tell me drug sensitivity score reported for C=C1C[C@@H]2[C@H](CC[C@]3(C)C(=O)CC[C@@H]23)[C@@]2(C)C=CC(=O)C=C12 [Exemestane] (max concentration tested 10000 nM)
0

Tell me drug sensitivity score reported for CO[C@@]12[C@H](COC(N)=O)C3=C(C(=O)C(C)=C(N)C3=O)N1C[C@@H]1N[C@@H]12 [Mitomycin C] (max concentration tested 10000 nM)
1.57

Tell me drug sensitivity score reported for COc1cc2c(N3CCN(C(=O)Nc4ccc(OC(C)C)cc4)CC3)ncnc2cc1OCCCN1CCCCC1 [Tandutinib] (max concentration tested 1000 nM)
0

Tell me drug sensitivity score reported for NC(=O)NO [Hydroxyurea] (max concentration tested 100000 nM)
0

Tell me drug sensitivity score reported for CC1=C2C[C@H]3[C@@H](CC=C4C[C@@H](O)CC[C@@]43C)[C@@H]2CC[C@]12O[C@@H]1C[C@H](C)CN[C@H]1[C@H]2C [Cyclopamine] (max concentration tested 10000 nM)
0

====

system: HSC2 (primary human Schwann cells); experiment: drug sensitivity score (DSS, CellTiter-Glo viability, 72 h) (DSS (dimensionless)); higher = more sensitive; extreme values may be limits of the assay
Measured Parameter: drug sensitivity score
Returns: the value as a bare number; no unit string appended.

Molecule	drug sensitivity score
CCN1CCN(c2ccc(Nc3cc(N(C)C(=O)Nc4c(Cl)c(OC)cc(OC)c4Cl)ncn3)cc2)CC1 [NVP-BGJ398] (max concentration tested 1000 nM)	0
N[C@@H](CSC(c1ccccc1)(c1ccccc1)c1ccccc1)C(=O)O [S-trityl-L-cysteine] (max concentration tested 40000 nM)	0
COc1cc2ncnc(Nc3ccc(F)c(Cl)c3)c2cc1OCCCN1CCOCC1 [Gefitinib] (max concentration tested 10000 nM)	3.41
NC1(c2ccc(-c3nc4ccn5c(=O)[nH]nc5c4cc3-c3ccccc3)cc2)CCC1 [MK-2206] (max concentration tested 1000 nM)	0
Sc1ncnc2nc[nH]c12 [Mercaptopurine] (max concentration tested 10000 nM)	0
C[C@]12C=CC(=O)C=C1CC[C@@H]1[C@@H]2[C@@H](O)C[C@@]2(C)[C@H]1CC[C@]2(O)C(=O)CO [Prednisolone] (max concentration tested 10000 nM)	0
COc1cc2c(Oc3ccc(NC(=O)C4(C(=O)Nc5ccc(F)cc5)CC4)cc3F)ccnc2cc1OCCCN1CCOCC1 [Foretinib] (max concentration tested 1000 nM)	3.44
CCN(CC)CCCC(C)Nc1ccnc2cc(Cl)ccc12 (stereo not given) [Chloroquine aq] (max concentration tested 100000 nM)	9.45

Tell me drug sensitivity score reported for Cn1cnc2c(F)c(Nc3ccc(Br)cc3F)c(C(=O)NOCCO)cc21 [MEK-162] (max concentration tested 1000 nM)
0

Tell me drug sensitivity score reported for Cc1c(Cn2c(C)nc3c(C(=O)O)cc(N4CCOCC4)cc32)cccc1C(F)(F)F (max concentration tested 10000 nM)
0

====

system: HSC1; assay: relative IC50 (inflection point of fitted dose-response curve, CellTox-Green cytotoxicity, 72 h; top asymptote may be below 50%); higher = less potent
// values below are reported relative IC50

# example entries with known answers
Molecule	Value Observed
COC1=C2C[C@@H](C)C[C@H](OC)[C@H](O)[C@@H](C)/C=C(\C)[C@H](OC(N)=O)[C@@H](OC)/C=C\C=C(/C)C(=O)NC(=CC1=O)C2=O	204 nM
COc1cc(CCc2cc(NC(=O)c3ccc(N4CC(C)NC(C)C4)cc3)n[nH]2)cc(OC)c1 (centres undefined)	> 1000 nM
Nc1ncnc2c1c(COc1cccc(Cl)c1)nn2C1CCOCC1	> 10000 nM
O=C(c1cc(Cc2n[nH]c(=O)c3ccccc23)ccc1F)N1CCN(C(=O)C2CC2)CC1	> 10000 nM
CC(C)(C)c1cnc(CSc2cnc(NC(=O)C3CCNCC3)s2)o1	11.9 nM

Tell me relative IC50 reported for CNC(=O)c1cc(Oc2ccc(NC(=O)Nc3ccc(Cl)c(C(F)(F)F)c3)c(F)c2)ccn1
> 10000 nM

Tell me relative IC50 reported for CC(=O)O[C@H]1C(=O)[C@@]2(C)[C@H]([C@H](OC(=O)c3ccccc3)[C@]3(O)C[C@H](OC(=O)[C@H](O)[C@@H](NC(=O)c4ccccc4)c4ccccc4)C(C)=C1C3(C)C)[C@]1(OC(C)=O)CO[C@@H]1C[C@@H]2O
24.4 nM

Tell me relative IC50 reported for COC(=O)c1ccc2c(c1)NC(=O)/C2=C(\Nc1ccc(N(C)C(=O)CN2CCN(C)CC2)cc1)c1ccccc1
> 10000 nM

Tell me relative IC50 reported for COc1cc2nccc(Oc3ccc(NC(=O)C4(C(=O)Nc5ccc(F)cc5)CC4)cc3)c2cc1OC [Cabozantinib]
> 1000 nM
